Data credit: patent US8026218

biological target: T1, rat NK1 receptor (rat, UniProt P14600 1-407); assay: competition vs [3H]Substance P, rNK1 CHO cell membranes
T1 construct: whole, on cells; membrane preparations of the transfected cells were used; also called rNK1; rNK-1
T1 sequence (P14600 whole entry): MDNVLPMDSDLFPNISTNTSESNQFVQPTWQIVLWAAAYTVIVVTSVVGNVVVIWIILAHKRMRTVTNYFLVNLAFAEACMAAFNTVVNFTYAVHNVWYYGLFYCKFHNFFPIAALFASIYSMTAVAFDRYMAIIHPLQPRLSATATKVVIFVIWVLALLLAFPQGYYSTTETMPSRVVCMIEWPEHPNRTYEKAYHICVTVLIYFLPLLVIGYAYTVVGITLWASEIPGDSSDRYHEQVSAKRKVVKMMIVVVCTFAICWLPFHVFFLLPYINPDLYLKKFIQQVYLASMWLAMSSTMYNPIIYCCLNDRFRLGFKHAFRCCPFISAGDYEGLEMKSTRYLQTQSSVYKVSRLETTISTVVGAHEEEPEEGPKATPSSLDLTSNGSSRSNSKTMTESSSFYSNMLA
Square brackets hold non-standard residues; d marks the D form. Ends that are not written are not given here. * marks the point of attachment. OBzl(3,5-(CF3)2) = FC(F)(F)c1cc(CO*)cc(C(F)(F)F)c1
READOUT: pIC50
Interpret pIC50 as the negative base-10 log of the concentration measured in mol/L.

Y[dA]GFLPLW-{OBzl(3,5-(CF3)2)} (also called TY004) [TyrDAlaGlyPheLeuProLeuTrpOBn(CF3)2] ... 7.68
Y[dA]GFFPLW-{OBzl(3,5-(CF3)2)} (also called TY003) [TyrDAlaGlyPhePheProLeuTrpOBn(CF3)2] ... 7.71
Y[dA]GFPLW-{OBzl(3,5-(CF3)2)} (also called TY001) [TyrDAlaGlyPheProLeuTrpOBn(CF3)2] ... 7.66
Y[dA]GF[dF]PLW-{OBzl(3,5-(CF3)2)} (also called TY007) [TyrDAlaGlyPheDPheProLeuTrpOBn(CF3)2] ... 7.18
Y[dA]GFMPLW-{OBzl(3,5-(CF3)2)} (also called TY005) [TyrDAlaGlyPheMetProLeuTrpOBn(CF3)2] ... 8.19
Y[dA]GFGPLW-{OBzl(3,5-(CF3)2)} (also: TFA salt, also called TY006) [TyrDAlaGlyPheGlyProLeuTrpOBn(CF3)2] ... 7.81

// next item, pIC50 requested
Field pIC50 (entry YAGFMPLW (D-Ala at 2; Met(O) at 5; C-terminal O-3,5-Bzl(CF3)2 ester, also called TY023) [TyrDAlaGlyPheMet(O)ProLeuTrpOBn(CF3)2] ) reads 7.26
